Just for reference, patent US11358969B2 is where these values come from.

assay: Mouse Pharmacokinetic Study (Example 1C); assay type: in vivo; conditions: mouse; CD-1 mice, po, 30 mg/kg; plasma
Quantity: AUC(0-t) (ng·h/mL)

Fc1cncc(-c2cc(OC3CCCC3)nc(NCCc3c[nH]c4ccccc34)n2)c1 [I-59]    2110

1 = Fc1cncc(-c2cc(NCCc3c[nH]c4ccccc34)n3nccc3n2)c1 [I-103]
2 = Cc1cnn2c(NCCc3c[nH]c4ccccc34)cc(-c3cncc(F)c3)nc12 [I-70]
3 = CN(C)c1cnn2c(N[C@H]3Cc4ccc(O)cc4C3)cc(-c3cncc(F)c3)nc12 [I-204b]
Rank ascending by AUC(0-t). A complete answer lists every label in the requested sequence.
3, 1, 2

---

experiment: Mouse Pharmacokinetic Study (Example 1C); assay type: in vivo; conditions: mouse; CD-1 mice, po, 30 mg/kg; plasma
Quantity: Cmax (ng/mL)

Fc1cncc(-c2cc(NCCc3c[nH]c4ccccc34)n3nccc3n2)c1    713
C[C@@H](O)c1cnn2c(N[C@@H]3CCc4[nH]c5ccccc5c4C3)cc(-c3cncc(F)c3)nc12 [I-198a]    721
Fc1cncc(-c2cc(OC3CCCC3)nc(NCCc3c[nH]c4ccccc34)n2)c1    719

---

Molecular target: AHR (UniProt P35869)
Construct: IC50
Sequence (P35869 1-848): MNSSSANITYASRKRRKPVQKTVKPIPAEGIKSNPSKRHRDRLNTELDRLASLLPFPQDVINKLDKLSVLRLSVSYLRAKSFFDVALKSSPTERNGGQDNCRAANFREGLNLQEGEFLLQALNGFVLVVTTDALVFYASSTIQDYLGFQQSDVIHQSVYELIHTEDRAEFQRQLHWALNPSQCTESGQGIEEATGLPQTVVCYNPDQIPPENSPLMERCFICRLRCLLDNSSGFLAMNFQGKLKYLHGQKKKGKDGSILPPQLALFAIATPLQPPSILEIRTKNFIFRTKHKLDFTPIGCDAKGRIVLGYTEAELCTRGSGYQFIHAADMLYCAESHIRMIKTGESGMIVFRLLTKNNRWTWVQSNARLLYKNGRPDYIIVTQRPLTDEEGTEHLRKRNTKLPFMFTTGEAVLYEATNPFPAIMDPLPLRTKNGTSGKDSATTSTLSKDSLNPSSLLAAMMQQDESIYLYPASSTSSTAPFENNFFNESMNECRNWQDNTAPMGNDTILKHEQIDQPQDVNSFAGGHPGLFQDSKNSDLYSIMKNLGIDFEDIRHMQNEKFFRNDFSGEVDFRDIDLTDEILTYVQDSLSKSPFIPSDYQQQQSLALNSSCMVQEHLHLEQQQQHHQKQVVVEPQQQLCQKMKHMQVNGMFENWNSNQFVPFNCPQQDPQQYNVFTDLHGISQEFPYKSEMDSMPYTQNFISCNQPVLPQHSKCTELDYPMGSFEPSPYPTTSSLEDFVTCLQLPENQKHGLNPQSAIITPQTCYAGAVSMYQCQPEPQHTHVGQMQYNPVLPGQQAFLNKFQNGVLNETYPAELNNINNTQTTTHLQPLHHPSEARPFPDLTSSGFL
Experiment: DRE-Luciferase Reporter Assay (Alternate Method) (Example 1B)
Assay type: cell-based, murine or human
Conditions: cell line and AHR activating ligand not specified
pIC50: −log10 of the molar value.
Measured pIC50 by item

Take a look at these entries with their results.
Fc1cncc(-c2nc(NCCc3c[nH]c4ccccc34)cc(N3CCCCC3)n2)c1    > 6.30
CC(C)c1cnn2c(N[C@@H]3CCc4[nH]c5ccccc5c4C3)nc(-c3cccnc3)nc12    > 6.30
CC(C)c1cnn2c(NC3Cc4[nH]c5ccccc5c4C3)nc(-c3cncc(F)c3)nc12 (stereo in doubt) [I-263a]    5.82 to 6.00
Cc1cnn2c(NC[C@H](O)c3c[nH]c4ccccc34)cc(-c3cncc(F)c3)nc12 [I-150a]    > 6.30
CN1CCN(C(=O)c2cnn3c(N[C@@H]4CCc5[nH]c6ccccc6c5C4)cc(-c4cncc(F)c4)nc23)CC1    < 5.82
CC(C)c1cnn2c(N[C@@H]3CCc4[nH]c5ccccc5c4C3)cc(-c3cncc(F)c3)nc12 [I-75a]    < 5.82
C[C@@H](O)c1cnn2c(N[C@@H]3CCc4[nH]c5ccccc5c4C3)cc(-c3cncc(F)c3)nc12 [I-198a]    > 6.30

Would you kindly look at the next entry?
Would you kindly share the measured pIC50 for `O=C(O)c1cnn2c(NCCc3c[nH]c4ccccc34)cc(-c3cncc(F)c3)nc12` ?
< 5.82
